- Test system: NCI/ADR-RES
- Assay Name: NCI tumour cell line growth inhibition, 48 h
Active and inactive are the calls of the source. No stated cut-off is given here; in the data, active = GI50 up to about 1.1 µM and inactive = higher.
Exercise: for every item that follows, state its recorded GI50.

COP(=O)(OC)/C(=C/c1cn(C(C)=O)c2ccccc12)NC(C)=O : 28.8 µM (inactive)
CCOC(=O)c1c(N2CCCC2)[nH]c(=O)c(C(c2ccco2)c2c(O)c(C(=O)OCC)c(N3CCCC3)[nH]c2=O)c1O : > 100 µM (inactive)
Nc1nc(O)c2ncn(C3C=CC(CO)C3)c2n1 (stereo not given) : > 100 µM (inactive)
O=C1OC(C(O)C(O)C(O)CO)C(O)C1O (stereo not given) : > 100 µM (inactive)
Cc1oc2c(c1C)S(=O)(=O)C(C#N)=C(N(C)C)N2 : > 100 µM (inactive)

Could I get GI50 for every one of these entries?
1. Cc1nc2c(nc1C)-c1[nH]c3c(c1C(=O)C2=O)CCCC3=O
2. CN(C)c1ccc(/C=N/c2ccc(-c3nc4ccccc4s3)cc2)cc1
3. COc1cc2c(cc1OC)-c1c(oc3cc(OC4OC(CO)C(O)C(O)C4O)c(OC)cc3c1=O)C(O)O2 (stereo not given)
4. COC(=O)c1c(OC(C)=O)ccc2c1c1c(OC(C)=O)c3ccccc3c(OC(C)=O)c1n2Cc1ccccc1
5. O=C1C(Cl)=C(N2C(=O)CCC2=O)C(=O)c2ccccc21

1: 2.25 µM (inactive); 2: 28.9 µM (inactive); 3: > 100 µM (inactive); 4: 7.06 µM (inactive); 5: 89.3 µM (inactive)
